biological target: PKN1 (Homo sapiens (Human), UniProt Q16512); assay: KINATIV assay; type: cell-based; settings: 1 μM, 90 minutes, BCWM.1 cells
Sequence (Q16512 whole entry): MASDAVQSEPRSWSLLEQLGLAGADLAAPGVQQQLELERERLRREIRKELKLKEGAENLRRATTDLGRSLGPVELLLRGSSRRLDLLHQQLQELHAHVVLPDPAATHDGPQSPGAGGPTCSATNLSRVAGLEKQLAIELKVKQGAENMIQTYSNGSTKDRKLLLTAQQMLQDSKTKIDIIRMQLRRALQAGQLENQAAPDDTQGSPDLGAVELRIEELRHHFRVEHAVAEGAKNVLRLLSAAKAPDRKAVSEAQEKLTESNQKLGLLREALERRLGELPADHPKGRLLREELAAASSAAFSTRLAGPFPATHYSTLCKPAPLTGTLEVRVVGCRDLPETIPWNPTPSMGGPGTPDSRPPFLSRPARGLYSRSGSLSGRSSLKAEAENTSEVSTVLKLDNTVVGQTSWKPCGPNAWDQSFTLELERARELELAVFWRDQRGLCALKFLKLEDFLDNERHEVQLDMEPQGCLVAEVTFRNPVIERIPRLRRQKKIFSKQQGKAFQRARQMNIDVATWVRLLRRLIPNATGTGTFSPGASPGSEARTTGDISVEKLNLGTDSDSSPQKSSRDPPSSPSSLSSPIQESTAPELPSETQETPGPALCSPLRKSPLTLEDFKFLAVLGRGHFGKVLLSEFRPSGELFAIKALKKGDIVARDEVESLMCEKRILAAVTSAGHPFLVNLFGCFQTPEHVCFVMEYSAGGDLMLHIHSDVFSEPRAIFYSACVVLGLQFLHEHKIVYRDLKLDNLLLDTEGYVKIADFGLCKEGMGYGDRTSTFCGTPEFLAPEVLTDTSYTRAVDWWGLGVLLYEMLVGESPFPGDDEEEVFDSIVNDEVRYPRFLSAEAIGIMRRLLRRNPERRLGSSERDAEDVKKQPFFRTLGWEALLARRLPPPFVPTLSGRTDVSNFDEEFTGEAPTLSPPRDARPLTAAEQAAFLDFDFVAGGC
quantity: % change of MS signal compared to control sample (%)
Report the figure in % without appending any unit label.

Here is how some molecules turned out for % change of MS signal compared to control sample.
[
  {
    "molecule": "C=CC(=O)N1CC[C@@H](Nc2nccc(Nc3ncc(C(=O)Nc4c(C)cccc4C)s3)n2)C1",
    "observed-result": 17.4
  },
  {
    "molecule": "C=CC(=O)N1CCC(Cn2ccc(Nc3ncc(C(=O)Nc4c(C)cccc4Cl)s3)n2)C1 (stereo not shown)",
    "observed-result": 20.9
  },
  {
    "molecule": "C=CC(=O)N1CCCCC(Nc2nccc(Nc3ncc(C(=O)Nc4c(C)cccc4C)s3)n2)C1 (stereo not shown)",
    "observed-result": 4.2
  }
]

Problem: Consider the molecule shown here: C=CC(=O)N1CCC(CNc2nccc(Nc3ncc(C(=O)Nc4c(C)cccc4C)s3)n2)C1 (racemic) What is its recorded % change of MS signal compared to control sample?
Result: 13.7
